conditions: in acetone, 298.3 K
parameter.measured: solubility (mole fraction)

# compound CS(=O)(=O)c1ccc(F)cc1 ; its solubility (mole fraction) = 0.282

###

conditions: in ethanol, 308.66 K
parameter.measured: solubility (mole fraction)
Lab note: record the figure alone, no unit after it.

In plain terms, CS(=O)(=O)c1ccc(F)cc1 has a documented solubility (mole fraction) of 0.0744

###

conditions: in toluene, 304.15 K
parameter.measured: solubility (mole fraction)

Query CS(=O)(=O)c1ccc(F)cc1 yields solubility (mole fraction) of 0.105

###

details: in chloroform, 299.93 K
parameter.measured: solubility (mole fraction)
I only need the number, thanks.

Per the records, this molecule ( CS(=O)(=O)c1ccc(F)cc1 ) has solubility (mole fraction) equal to 0.312

###

settings: in ethyl acetate, 305.75 K
parameter.measured: solubility (mole fraction)
// print number alone

Record summary for CS(=O)(=O)c1ccc(F)cc1 : reported solubility (mole fraction) = 0.278

###

details: in chloroform, 288.4 K
parameter.measured: solubility (mole fraction)
Keep it simple and answer with nothing but the number.

Query CS(=O)(=O)c1ccc(F)cc1 yields solubility (mole fraction) of 0.229

###

conditions: in ethanol, 291.07 K
parameter.measured: solubility (mole fraction)
Number only, no unit.

In plain terms, CS(=O)(=O)c1ccc(F)cc1 has a documented solubility (mole fraction) of 0.0162

###

conditions: in ethyl acetate, 299.67 K
parameter.measured: solubility (mole fraction)

Per the records, this compound ( CS(=O)(=O)c1ccc(F)cc1 ) has solubility (mole fraction) equal to 0.23

###

settings: in ethanol, 297.34 K
parameter.measured: solubility (mole fraction)
# print the numeric value only

Note to self: solubility (mole fraction) recorded for CS(=O)(=O)c1ccc(F)cc1 was 0.0302

###

conditions: in toluene, 306.87 K
parameter.measured: solubility (mole fraction)
Simply state the number, no unit and no words.

Lab book: solubility (mole fraction) of CS(=O)(=O)c1ccc(F)cc1 noted as 0.125

Hey, just so you know, these numbers are from BigSolDB 2.1.
